run_description: Brain tissue distribution test
Assay type: in vivo
condition_label: Sprague-Dawley (SD), rat, brain; SD rats, PO 20 mg/kg, 2 hours; read-out: Brain concentration 2 hours after administration
measured_attribute: concentration at 2 h
Remember to put the unit after the number in your answer.

Documented concentration at 2 h of C=C(F)C(=O)N1CCN(c2nc(OC[C@@H]3CCCN3C)nc3c2CCN(c2cccc4cccc(Cl)c24)C3)C[C@@H]1CC#N : 69.8 ng/g

====

run_description: Plasma protein binding assay (equilibrium dialysis), mouse plasma
Assay type: in vitro ADME
condition_label: pH 7.4, Mice plasma, equilibrium dialysis 5 hours, read-out: Plasma protein binding rate (%) (converted)
measured_attribute: fraction unbound at 5 h, 1 μmol/L
One number for each entry.

molecule: C=CC(=O)N1CCN(c2nc(=O)n(-c3c(C)ccnc3C(C)C)c3nc(-c4c(O)cccc4F)c(F)cc23)[C@@H](C)C1 [AMG510]
fraction unbound at 5 h, 1 μmol/L: 0.091

Let's switch to this molecule now.
Documented fraction unbound at 5 h, 1 μmol/L of C=C(F)C(=O)N1CCN(c2nc(OC[C@@H]3CCCN3C)nc3c2CCN(c2cccc4cccc(Cl)c24)C3)C[C@@H]1CC#N [MRTX849] : 0.004
